Exercise: state measured CC50 for each of the compounds provided.
system: MT-2 cells

What does the record list as CC50 for Cc1ccc(NC(=O)CN2C(=O)S/C(=C\c3ccc(-c4cccc(C(=O)O)c4C)o3)C2=O)cc1 [NB196] ?
> 336 µM

What does the record list as CC50 for C#CCN1C(=O)S/C(=C\c2ccc(-c3cc(C(=O)O)ccc3C)o2)C1=O [NB205] ?
> 435 µM

What does the record list as CC50 for CCC(C)N1C(=O)S/C(=C\c2ccc(-c3cc(C(=O)O)ccc3Cl)o2)C1=O (centres unmarked) [NB232] ?
> 394 µM

What does the record list as CC50 for Cc1ccc(NC(=O)CN2C(=O)S/C(=C\c3ccc(-c4cc(C(=O)O)ccc4Cl)o3)C2=O)cc1 [NB197] ?
> 341 µM

What does the record list as CC50 for COC(=O)C(C)N1C(=O)S/C(=C\c2ccc(-c3cc(C(=O)O)ccc3C)o2)C1=O (centres unmarked) [NB237] ?
67.7 µM

What does the record list as CC50 for O=C(O)CN1C(=O)/C(=C/c2ccc(-c3cc(C(=O)O)ccc3Cl)o2)SC1=S [NB235] ?
> 378 µM

What does the record list as CC50 for Cc1cccc(NC(=O)CN2C(=O)S/C(=C\c3ccc(-c4cc(C(=O)O)ccc4Cl)o3)C2=O)c1 [NB198] ?
> 322 µM

What does the record list as CC50 for CN1C(=O)/C(=C/c2ccc(-c3cccc(C(=O)O)c3)o2)SC1=S [NB151] ?
125 µM
